# Test system: LOC_OS02G14120-cb001;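 also: purified Escherichia coli-expressed rice kinase domain construct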
# testProtocol: thermal shift delta Tm vs DMSO control; higher = stronger stabilization (binding)
# measurementSetup: 12.5 µM; protein concentration 2 µM
Measured thermal shift delta Tm accompanies every entry in the list below.

>  <molecule>
CCCCOc1c(C(=O)c2c(F)cc(C)cc2F)c[nH]c2nncc1-2

>  <thermal shift delta Tm / °C>
1.75

$$$$
>  <molecule>
Cc1ccc(C(=O)Nc2ccc(CN3CCN(C)CC3)c(C(F)(F)F)c2)cc1C#Cc1cnc2[nH]ncc2c1 [GZD824 Dimesylate]

>  <thermal shift delta Tm / °C>
4.33

$$$$
>  <molecule>
O=C(Nc1cccc(Nc2ncc(Br)c(NCCc3cnc[nH]3)n2)c1)N1CCCC1

>  <thermal shift delta Tm / °C>
10.6

$$$$
>  <molecule>
CO[C@H]1C[C@@H]2CC[C@@H](C)[C@@](O)(O2)C(=O)C(=O)N2CCCC[C@H]2C(=O)O[C@H]([C@H](C)C[C@@H]2CC[C@@H](OP(C)(C)=O)[C@H](OC)C2)CC(=O)[C@H](C)/C=C(\C)[C@@H](O)[C@@H](OC)C(=O)[C@H](C)C[C@H](C)/C=C/C=C/C=C/1C

>  <thermal shift delta Tm / °C>
0.4

$$$$
>  <molecule>
COc1ccc(CC(=O)Nc2nc3c(s2)CCc2ccccc2-3)cc1OC

>  <thermal shift delta Tm / °C>
2.82

$$$$
>  <molecule>
CN1CC[C@H](c2c(O)cc(O)c3c(=O)cc(-c4ccccc4Cl)oc23)[C@H](O)C1 [Flavopiridol (Alvocidib)]

>  <thermal shift delta Tm / °C>
1.28

$$$$
